Test system: ASPC1
experimental protocol: Cytotoxicity against human ASPC1 cells assessed as reduction in cell viability measured after 72 hrs by SRB assay
Assay type: functional, cell-based
applied conditions: ASPC1, 72 h
Please use 1 for IC50 under 200 nM and -1 for everything else, ties included.

Query string: # strict comparison: is reported IC50 < 200 nM? input = `O=c1c2cc(O)ccc2[nH]c2c([N+](=O)[O-])ccc(NCCCN3CCN(CCCNc4c5ccccc5nc5cccc([N+](=O)[O-])c45)CC3)c12`
Result string: -1

Query string: Queued: `O=c1c2ccccc2[nH]c2c([N+](=O)[O-])ccc(NCCCN3CCN(CCCNc4c5ccccc5nc5cccc([N+](=O)[O-])c45)CC3)c12`
Result string: 1

Query string: Queued: NC(CCN1CCN(CCCNc2ccc3nnn4c5ccccc5c(=O)c2c34)CC1)c1ccc2nc3ccccc3cc2c1[N+](=O)[O-] (stereo unspecified)
Result string: 1

Query string: Queued: Cc1nc2ccc(NCCCN3CCN(CCC(N)c4ccc5nc6ccccc6cc5c4[N+](=O)[O-])CC3)c3c(=O)c4cc(O)ccc4n1c23 (stereo unspecified)
Result string: 1

Query string: Queued: `Cc1cc(NCCCN(C)CCCNc2ccc3ncn4c5ccc(O)cc5c(=O)c2c34)c([N+](=O)[O-])c2cc3ccccc3nc12`
Result string: 1

Query string: Queued: NC(CCN1CCN(CCCNc2ccc3nnn4c5ccc(O)cc5c(=O)c2c34)CC1)c1ccc2nc3ccccc3cc2c1[N+](=O)[O-] (stereo unspecified)
Result string: 1

Query string: Queued: Cc1cc(C(N)CCN2CCN(CCCNc3ccc4ncn5c6ccccc6c(=O)c3c45)CC2)c([N+](=O)[O-])c2cc3ccccc3nc12 (stereo unspecified)
Result string: -1

Query string: Queued: `Cc1cc(NCCCN(C)CCCNc2ccc3ncn4c5ccccc5c(=O)c2c34)c([N+](=O)[O-])c2cc3ccccc3nc12`
Result string: -1

Query string: Queued: `Cc1ccc([N+](=O)[O-])c2c(NCCCN3CCN(CCCNc4ccc5ncn6c7ccc(O)cc7c(=O)c4c56)CC3)c3ccccc3nc12`
Result string: -1

Query string: Queued: `O=c1c2cc(O)ccc2n2cnc3ccc(NCCCN4CCN(CCCNc5c6ccccc6nc6cccc([N+](=O)[O-])c56)CC4)c1c32`
Result string: 1

Query string: Queued: `CN(CCCNc1c2ccccc2nc2cccc([N+](=O)[O-])c12)CCCNc1ccc([N+](=O)[O-])c2[nH]c3ccccc3c(=O)c12`
Result string: 1

Query string: Queued: `CN(CCCNc1c2ccccc2nc2cccc([N+](=O)[O-])c12)CCCNc1ccc([N+](=O)[O-])c2[nH]c3ccc(O)cc3c(=O)c12`
Result string: 1

Query string: Queued: COc1ccc2c(c1)c(=O)c1c(NCCCN3CCN(CCC(N)c4ccc5nc6ccccc6cc5c4[N+](=O)[O-])CC3)ccc3ncn2c31 (stereo unspecified)
Result string: 1

Query string: Queued: `O=c1c2ccccc2n2cnc3ccc(NCCNc4c5ccccc5nc5cccc([N+](=O)[O-])c45)c1c32`
Result string: 1

Query string: Queued: `O=c1c2ccccc2n2cnc3ccc(NCCCN4CCN(CCCNc5c6ccccc6nc6cccc([N+](=O)[O-])c56)CC4)c1c32`
Result string: 1

Query string: Queued: `Cc1ccc(NCCCN2CCN(CCCNc3c4ccccc4nc4cccc([N+](=O)[O-])c34)CC2)c2c(=O)c3cc(O)ccc3[nH]c12`
Result string: 1
